experiment: growth suppression of PTEN-deleted HCT116, pilot screen, cell-based, HCT116 clonal line, CellTiter-Glo (AID 824); conditions: 60 h, at 10 µM, active compounds read low;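 also: 0% = 20 µM Hyamine control and 100% = vehicle cell control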
Records with an inconclusive call do not appear. Active and inactive are the calls of the source.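 The calls were made as follows: active = viability at or below 27.92% in each of two runs, the all-compound median minus 4 SD; inconclusive = no clear call, values can overlap the other calls; inactive = the rest.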
assay metric: viability

For orientation, consider the following solved cases.
[
  {
    "compound": "Cc1ccc(C2CC(c3ccccc3Cl)n3nc(N)nc3N2)cc1 (configuration not stated)",
    "obs value": "92.5% (inactive)"
  },
  {
    "compound": "Cc1sc2ncnc(NCc3ccco3)c2c1C",
    "obs value": "62.3% (inactive)"
  },
  {
    "compound": "Cc1cccn2c(=O)c3cc(C#N)c(=NC(=O)c4ccccc4)n(Cc4ccco4)c3nc12",
    "obs value": "62.2% (inactive)"
  }
]

List reported viability for each of these compounds:
1. COc1ccc(NC2c3ccccc3C(=O)N2c2cccnc2)cc1Cl (configuration not stated)
2. Cc1ccc(-c2nc(NC(=O)CSc3nnc4scc(-c5ccccc5)n34)ns2)cc1

Response:
["80.4% (inactive)", "66.8% (inactive)"]

List reported viability for each of these compounds:
1. CS(=O)(=O)n1nc(C(=O)N2CCOCC2)nc1N
2. CCCNC(=O)Cc1cc(=O)[nH]c(=O)[nH]1
3. COc1ccc(C(C)=O)cc1CSc1nnc(C)s1
4. OCCOCCNc1ncnc2nc[nH]c12

Response:
1. 98.4% (inactive)
2. 101% (inactive)
3. 96.8% (inactive)
4. 101% (inactive)

List reported viability for each of these compounds:
1. O=S(=O)(CCc1nnc(-c2ccccc2)o1)c1ccc2ccccc2c1
2. CCn1c(SCC(=O)Nc2nnc(C)s2)nc2c(c1=O)SC(C)C2 (configuration not stated)
3. Cc1onc(-c2ccccc2)c1C(=O)Nc1sc2c(c1C#N)CCC2

Response:
1: 91.8% (inactive); 2: 96.6% (inactive); 3: 54.3% (inactive)

###

test: Restrictive medium S. cerevisiae growth inhibition, OD615, pilot screen of yeast lifespan reduction project, restrictive growth control (AID 706); conditions: OD615, 48 h, at 10 µM, active compounds read high;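 also: modified DeaD lifespan yeast strain shifted to restrictive glucose medium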
Would you mind telling me the reported growth inhibition of each entry?
One number for each entry, in %.

[
  {
    "compound": "Nc1ccc2nc(-c3ccc(Cl)cc3)[nH]c2c1",
    "obs value": -10.7
  },
  {
    "compound": "COCc1cc(=O)n2c(-c3ccc(C)cc3)n[nH]c2n1",
    "obs value": 6.96
  },
  {
    "compound": "Cc1cc(C(=O)NC2CCCC2)on1",
    "obs value": -21.1
  }
]

List reported growth inhibition for each of these compounds:
1. CN(C)c1nc(Oc2ccc(C(=O)OCC(=O)Nc3ccccc3)cc2)nc(N(C)C)n1
2. Cn1c(Cn2c(=O)sc3ccccc32)nnc1SCC(=O)Nc1ccc2c(c1)OCO2
3. Cc1onc(-c2ccccc2Cl)c1C(=O)N(C)C1CCCCC1

Response:
[5.01, 7.6, -9.2]

###

experiment: Restrictive medium S. cerevisiae growth inhibition, OD615, pilot screen of yeast lifespan reduction project, restrictive growth control (AID 706); conditions: OD615, 48 h, at 10 µM, active compounds read high;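 also: modified DeaD lifespan yeast strain shifted to restrictive glucose medium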
assay metric: growth inhibition (%)
Give bare numbers, in %.

For orientation, consider the following solved cases.
[
  {
    "compound": "Cc1nc2cc(C(=O)O)ccc2n1-c1ccccc1",
    "obs value": -0.12
  },
  {
    "compound": "Cc1c(Nc2nc3ccccc3nc2N2CCN(c3ccccc3)CC2)c(=O)n(-c2ccccc2)n1C",
    "obs value": -9.73
  },
  {
    "compound": "Cc1cccn2c(=O)c3cc(C(=O)NC4CCS(=O)(=O)C4)sc3nc12 (stereo unspecified)",
    "obs value": 1.39
  }
]

List reported growth inhibition for each of these compounds:
1. Cn1c(NC(=O)c2ccc(C(C)(C)C)cc2)cc(=O)n(C)c1=O
2. CC(C)(C)c1ccc(S(=O)(=O)N2CCCCC2C(=O)NCc2ccccn2)cc1 (stereo unspecified)
3. CC(=O)C1=C(O)C(=O)N(CC(=O)O)C1c1ccccc1Cl (stereo unspecified)
4. CCC(C)NC(=O)c1cnc2n(c1=O)CCS2 (stereo unspecified)
5. CCCCCn1c(SCC(=O)OC)nc2c1c(=O)[nH]c(=O)n2C
6. O=C(COc1ccc(S(=O)(=O)NC2CCCCC2)cc1)Nc1ccc2c(c1)OCCO2
7. CCc1cccc(OCC(=O)Nc2ccc(S(=O)(=O)Nc3onc(C)c3C)cc2)c1
8. CCOC(=O)CSCc1nc(-c2ccc(Cl)cc2)oc1C

Response:
1. -6.46
2. -29
3. 9.59
4. -1.8
5. -10.6
6. 4.23
7. 8.17
8. -8.34

###

experiment: growth suppression of beta-catenin knockout HCT116, pilot screen, human colon tumor cells (AID 823); settings: CellTiter-Glo, 60 h, at 10 µM, active compounds read low;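 also: 0% = wells killed by 20 µM Hyamine and 100% = untreated DMSO cell wells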
Records with an inconclusive call do not appear.
Mark 1 only when viability stays strictly below 90%. Values equal to the cut-off are 0.

Examples with answers:
[
  {
    "molecule": "CC1CCCN(Cc2nc3c(c(=O)n(C)c(=O)n3C)n2Cc2c(F)cccc2Cl)C1 (stereo unspecified)",
    "qualitative label": 1
  },
  {
    "molecule": "CCc1nc(C)cn1S(=O)(=O)c1ccc(Cl)c(Cl)c1Cl",
    "qualitative label": 0
  },
  {
    "molecule": "COc1cccc(C(=O)NCCn2ccc3ccccc32)c1",
    "qualitative label": 0
  },
  {
    "molecule": "COc1ccc(C2NC(=O)c3n[nH]c(C)c32)c(OC)c1 (stereo unspecified)",
    "qualitative label": 0
  }
]

Prompt: Take the molecule "CCN(CC)c1ccc(NC(=O)CN2C(=O)CSc3ncccc32)c(C)c1" and say whether its viability is less than 90%.
Response: 1

Prompt: Then what about the molecule Cn1c(NC(=O)C2CCCO2)cc(=O)n(C)c1=O (stereo unspecified) ?
Response: 0

Prompt: Then what about the molecule "O=C(Nc1nnc(-c2ccc(Cl)s2)o1)C1CCCCC1" ?
Response: 1

Prompt: Then what about the molecule "CCOC(=O)c1c(NC(=O)c2cccs2)sc2c1CCCC2" ?
Response: 0

###

assay: inhibitors of the yeast RAM network, pilot screen, dse1pr::URA3 reporter, 5-FOA selection (AID 869);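 also: 0% = DMSO wells with no growth and 100% = 10 µM 1-NA-PP1 with full growth; RAM network block rescues cells from 5-FOA so hits raise OD615 growth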; conditions: S. cerevisiae dse1pr::URA3 5-FOA growth, OD615, 2 d; at 10 µM; active compounds read high; strain carries analog-sensitive mutant Cbk1 kinase
Activity calls are given as the source filed them.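 Rule for the calls: active = inhibition over a set limit, the all-compound mean plus 3 SD, in both replicate runs; inconclusive = over that limit in just one replicate run; inactive = at or under that limit in both runs.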
assay metric: inhibition

For orientation, consider the following solved cases.
[
  {
    "compound": "COC(=O)C1=C(C)N(C)C(C)=C(C(=O)OC)C1c1cccc(Br)c1",
    "inhibition": "0.57% (inactive)"
  },
  {
    "compound": "O=C(CN1CCN(c2ccccc2F)CC1)c1ccc2cc[nH]c2c1",
    "inhibition": "2.02% (inactive)"
  },
  {
    "compound": "Cc1ccc(-c2n[nH]c(=S)n2C)cc1",
    "inhibition": "2.21% (inactive)"
  },
  {
    "compound": "CCOC(=O)Cn1c(=NC(=O)CSC(C)=O)sc2ccccc21",
    "inhibition": "0.465% (inactive)"
  },
  {
    "compound": "CCN(CC)C(=O)CN(Cc1ccccc1)S(=O)(=O)c1ccc(F)cc1",
    "inhibition": "1.32% (inactive)"
  }
]

List reported inhibition for each of these compounds:
1. CC1Cc2nc(SCC(=O)N3CCCC3)n(C)c(=O)c2S1 (stereo unspecified)
2. Oc1cccc(/C=N/c2c(-c3ccco3)nc3ccccn23)c1
3. COC(=O)c1ccsc1NC(=O)c1ccc(Cl)s1
4. COc1ccc(CCN2CC34C=CC(O3)C(C(=O)NCc3ccccc3)C4C2=O)cc1OC (stereo unspecified)
5. Clc1ccc(CSc2nnc(-c3ccccn3)n2Cc2ccco2)c(Cl)c1
6. C=CCn1c(C(C)NC(=O)COC)nc2ccccc21 (stereo unspecified)

Response:
1.17% (inactive)
2% (inactive)
3.58% (inactive)
0.89% (inactive)
1.68% (inactive)
0.935% (inactive)

###

assay: growth suppression of beta-catenin knockout HCT116, pilot screen, human colon tumor cells (AID 823); conditions: CellTiter-Glo, 60 h, at 10 µM, active compounds read low;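 also: 0% = wells killed by 20 µM Hyamine and 100% = untreated DMSO cell wells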
Inconclusive results are not listed.
assay metric: viability (%)
Answers are plain numbers, in %.

[
  {
    "compound": "O=C(Nc1nnc(-c2ccc(F)cc2)o1)c1ccco1",
    "assay metric": "viability",
    "obs value": 97.5
  },
  {
    "compound": "CN1C(=O)c2cccc(NC(=O)Cc3ccccc3)c2C1=O",
    "assay metric": "viability",
    "obs value": 111
  },
  {
    "compound": "CCSc1nnc(NC(=O)c2cccc(OCc3c(C)noc3C)c2)s1",
    "assay metric": "viability",
    "obs value": 98.2
  },
  {
    "compound": "COc1ccc(NC(=O)Nc2cccc(OC)c2)cc1",
    "assay metric": "viability",
    "obs value": 95.3
  }
]

List reported viability for each of these compounds:
1. Cc1ccc(C(=O)N2CCN(C(=O)CN3CCOCC3)C2)cc1
2. N#Cc1nc(-c2ccccc2F)oc1NCc1ccccc1
3. O=C(CCCCn1c(=O)[nH]c2ccccc2c1=O)NC1CCN(Cc2ccccc2)CC1
4. O=c1cc(O)c2c(=O)n(-c3ccccc3)c3ccccc3c2o1
5. Clc1ccc(CSc2nnc(-c3ccccn3)n2Cc2ccco2)c(Cl)c1
6. CCOC(=O)CSc1nc2ccccc2c(=O)[nH]1
7. Oc1c(C(c2ccccc2)N2CCN(Cc3ccccc3)CC2)sc2ncnn12 (stereo unspecified)

Response:
1. 95
2. 107
3. 91.4
4. 98.3
5. 70.2
6. 105
7. 89.7
